PROTOCOL_DETAILS: qHTS for differential inhibitors of proliferation of Plasmodium falciparum line GB4 (AID 1816);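 further: parasite growth measured after 72 h incubation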; further: potency means the concentration at half of the fitted maximal effect
REPORTED_CONDITIONS: Plasmodium falciparum GB4 proliferation inhibition; series mostly up to 28.7 µM
Records with an inconclusive call do not appear. The source made the active and inactive calls. The call rests on the fitted dose curve; in most records, active means well fitted curve in the direction sought with a large enough effect; inconclusive means small, poorly fitted or top-dose-only effect, or another doubt; inactive means no such curve, though single readings can be large or run the other way.

MOLECULE	Potency
Cn1cc(C(F)(F)F)nc1-c1ccc(OCC(O)CNCCOc2ccc(O)c(C(N)=O)c2)cc1 (stereo not given)	12.6 µM (active)
CC(=O)/C(C)=N/O	inactive
Nc1ccc(-c2nc3ccc(-c4nc5ccc(N)cc5[nH]4)cc3[nH]2)cc1	0.891 µM (active)
CCC1(O)CC2CN(CCc3c([nH]c4ccccc34)[C@@](C(=O)OC)(c3cc4c(cc3OC)N(C)C3[C@]45CCN4CC=C[C@@](CC)([C@@H](OC(C)=O)[C@]3(O)C(=O)OC)[C@H]45)C2)C1 (stereo not given in full)	2.51 µM (active)
CCCCOC(=O)NS(=O)(=O)c1sc(CC(C)C)cc1-c1ccc(Cn2c(CC)nc3c(C)cc(C)nc32)cc1	8.91 µM (active)
O=C(O)Cc1ccc(O)c(O)c1	inactive
CCCCCCC/C=C\CCCCCCCCC(=O)O	inactive
C[C@H](O)C(=O)C1=Nc2c(nc(N)[nH]c2=O)NC1	inactive
NC1(C(=O)O)CCc2cc(C(=O)O)ccc21 (stereo not given)	inactive
C=CCN1CCc2cc(O)c(O)cc2C(c2ccccc2)C1 (stereo not given)	12.6 µM (active)

* * *

PROTOCOL_DETAILS: qHTS of Trypanosoma Brucei Inhibitors: LOPAC Validation (AID 624147); further: 0% is about no effect
REPORTED_CONDITIONS: purified enzyme assay, luminescence, 45 min; series mostly up to 57.5 µM
Text: Members of the Trypanosomatidae family of parasitic protozoans cause a spectrum of diseases throughout the tropical and subtropical world. Sleeping sickness, caused by two subspecies of Trypanosoma brucei, is endemic to areas of sub-Saharan Africa, while Chagas' disease, a manifestation of Trypanosoma cruzi infection, is prevalent throughout Central and South America. […]
Records with an inconclusive call do not appear. Activity calls are given as the source filed them. Calls follow the shape of the dose curve; as a rule, active = well fitted inhibition curve with a large enough effect; inconclusive = small, poorly fitted or top-dose-only effect; inactive = flat fitted curve, though single readings scatter.
QUANTITY_KIND: outcome

MOLECULE	REPORTED_VALUE
O=c1cc(-c2ccccc2)[nH]c2nc(Cl)ccc12	inactive
Oc1ccc(/C=C/c2ccc(/C=C/c3ccc(O)cc3)c(Br)c2)cc1	inactive
Cn1c(=O)[nH]c2ncn(C)c2c1=O	inactive
CN1CCC2(CCN3CCc4c(oc5ccccc45)C3C2)N(C)C1=O (configuration not stated)	inactive
NC(=O)c1ccccc1	inactive
Nc1ncnc2c1ncn2C1CCCO1 (configuration not stated)	inactive
C[N+](C)(C)CC=O	inactive
CN(CC[C@@H](Oc1ccc(C(F)(F)F)cc1)c1ccccc1)CC(=O)O	inactive
O=C1NC(=O)c2cc(Nc3ccccc3)c(Nc3ccccc3)cc21	inactive
CCN(CC)CCCCCCCCOC(=O)c1cc(OC)c(OC)c(OC)c1	inactive
CC1C(=O)N(C)C(=O)c2nc[nH]c21 (configuration not stated)	inactive
CC(C)(C)c1cc(/C=C(\C#N)C(N)=S)cc(C(C)(C)C)c1O	inactive
N=S(=O)(O)Cc1noc2ccccc12	inactive
O=c1cc(-c2ccccc2F)[nH]c2cc3c(cc12)OCO3	inactive
OC[C@H]1NC[C@@H](O)[C@@H]1O	inactive
COCc1nc2c([nH]1)c(=O)n(C)c(=O)n2CC(C)C	inactive
N[C@H](C(=O)O)[C@H]1C[C@@H]1C(=O)O	inactive
CC(C)(CO)Cc1cc(C(C)(C)C)c(O)c(C(C)(C)C)c1	inactive
COc1cc(C(O)CO)ccc1O (configuration not stated)	inactive
CC(N)=O	inactive
c1ccc2c(c1)CC(N1CCN(c3cccc4c3OCCO4)CC1)C2	inactive
COc1ccc(CCn2nnnc2C2(c3ccc(C)cc3)CC2)cc1	inactive
COc1cccc(OC)c1OCCNCC1CSc2ccccc2O1 (configuration not stated)	inactive
CNC(=O)c1cc2c(cn1)[nH]c1ccccc12	inactive
Nc1ccc2c3c(cccc13)C(=O)NC2=O	inactive
CN1C2CCC1CC(OC(c1ccccc1)c1ccccc1)C2 (configuration not stated)	inactive
C#CC(N)CCC(=O)O (configuration not stated)	inactive
Nn1nnc2ccccc21	inactive
OCC1NCC(O)C(O)C1O (configuration not stated)	inactive
CC1=C(C(=O)O)N2C(=O)[C@@H](NC(=O)C(N)C3=CCC=CC3)[C@H]2SC1 (some centres not stated)	inactive
O=c1[nH]c(=S)[nH]c(-c2ccccc2)c1Cc1c(O)ccc2ccccc12	inactive
CC(O)C(O)[C@H]1CNc2nc(N)[nH]c(=O)c2N1 (some centres not stated)	inactive

* * *

PROTOCOL_DETAILS: qHTS for differential inhibitors of proliferation of Plasmodium falciparum line D10 (AID 1877);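 further: parasites grown with compound for 72 h before DNA staining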
REPORTED_CONDITIONS: series mostly up to 28.7 µM
Results filed as inconclusive are left out. The source made the active and inactive calls. The call rests on the fitted dose curve; in most records, active means well fitted curve in the direction sought with a large enough effect; inconclusive means small, poorly fitted or top-dose-only effect, or another doubt; inactive means no such curve, though single readings can be large or run the other way.
Labels: true (1) for active, false (0) for inactive

COMPOUND	LABEL_CLASS
CC(N)(C(=O)O)c1ccc(C(=O)O)cc1 (configuration not stated)	false (0)
Cc1cccc(C2CN(C)CCc3c2cc(O)c(O)c3Cl)c1 (configuration not stated)	true (1)
O=C(O)CCC(=O)N1CCCC1C(=O)O (configuration not stated)	false (0)
CCn1c(=O)[nH]c2cc(Cl)c(Cl)cc21	false (0)
N[C@@H](CCC(=O)N[C@H](CSN=O)C(=O)NCC(=O)O)C(=O)O	false (0)
COc1cc2c(CCNC(C)=O)c[nH]c2cc1O	false (0)
CC(=O)/C(C)=N/O	false (0)
CCCCCCCCCCC/C=C\C(C)(C)/C=C\CCCC(=O)O	false (0)
CCCCCCCCCCCCCCCCCCOC[C@H](COP(=O)([O-])OCC[N+](C)(C)C)OC	false (0)
N[C@@H](CS(=O)O)C(=O)O	false (0)
CCCn1c(=O)c2[nH]c(-c3ccc(S(=O)(=O)O)cc3)nc2n(CCC)c1=O	false (0)
COc1ccccc1N1CCN(CCCCNC(=O)c2ccc3ccccc3c2)CC1	true (1)

* * *

PROTOCOL_DETAILS: AP1 Signaling Pathway (AID 357);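 further: ME-180 reporter cells stimulated with EGF at its EC50 level; on the % scale 0 is the no-effect control and ±100 the full control effect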
REPORTED_CONDITIONS: ME-180 (cervical carcinoma) AP-1-bla reporter, EGF-induced, beta-lactamase ratio, 5 h; at 38 µM (top of the series) unless noted
Inconclusive results are not listed. Calls of active or inactive are those of the source. The call rests on the fitted dose curve; in most records, active means well fitted curve in either direction with a large enough effect (not every such curve was filed as active); inconclusive means small, poorly fitted or top-dose-only effect, or another doubt; inactive means flat fitted curve, though single readings scatter.

MOLECULE	activity change, negative = inhibition
CC(=O)C(C)=O	-3.27% (inactive)
C=CCn1c(=O)c2c(nc(-c3ccc(S(=O)(=O)O)cc3)n2C)n(C)c1=O	7.93% (inactive)
CN[C@H](CC(=O)O)C(=O)O	-0.55% (inactive)
O=c1[nH]c2cc(Cl)ccc2c(O)c1-c1ccc(Oc2ccccc2)cc1	3.01% (inactive)
CNC(=O)c1cc2c(cn1)[nH]c1ccccc12	0.843% (inactive)
NC(=O)CNCCC(c1ccccc1)c1ccccc1	-7.75% (inactive)
N=C(N)SCCN	3.17% (inactive)
NC1(C(=O)O)CC1	11.9% (inactive)
NCCS(=O)O	7.28% (inactive)
N=C(N)c1ccccc1	10.4% (inactive)
N=C(N)c1ccc(N)cc1	6.35% (inactive)
NC1(C(=O)O)CCCCC1	-0.957% (inactive)
O=C(O)C1=CCNCC1	-4.73% (inactive)
CCCCCCCCCCCCCCSCC(=O)O	-3.84% (inactive)
O=C(O)C1=CCCNC1	-0.308% (inactive)
Cn1c(=O)[nH]c2ncn(C)c2c1=O	0.808% (inactive)
O=C(O)C1=CCCN(CCON=C(c2ccccc2)c2ccccc2)C1	5.02% (inactive)
O=C(O)C1CCNCC1	-3.06% (inactive)
O=C(O)Cc1c[nH]c2ccc(O)cc12	21.9% (inactive)
Nc1ccc2c3c(cccc13)C(=O)NC2=O	-5.58% (inactive)
CC(C)(CO)Cc1cc(C(C)(C)C)c(O)c(C(C)(C)C)c1	4.82% (inactive)
NC(N)=NC(N)=Nc1ccccc1	-6.28% (inactive)
COc1ccc2c(c1)c(CC(=O)O)c(C)n2C(=O)c1ccccc1	1.55% (inactive)
CC(N)=O	9.17% (inactive)
COc1cc(CNC(=O)CCCCCCC(C)C)ccc1O	-1.77% (inactive)
Nn1nnc2ccccc21	1.19% (inactive)
NS(=O)(=O)c1cccc2c1c([N+](=O)[O-])cc1nc(O)c(O)nc12	7.91% (inactive)
Cc1nc(N=Nc2ccc(C(=O)O)cc2)c(COP(=O)(O)O)c(C=O)c1O	-5.94% (inactive)
NOCC(=O)O	12.3% (inactive)
O=c1[nH]c(=S)[nH]c(-c2ccccc2)c1Cc1c(O)ccc2ccccc12	-11.2% [at 7.69 µM] (inactive)
NCCCCN=C(N)N	-8.22% (inactive)
O=c1onc2n1-c1cc(Br)ccc1OC2	1.26% (inactive)
Cc1nc(N=Nc2ccc(S(=O)(=O)O)cc2S(=O)(=O)O)c(COP(=O)(O)O)c(C=O)c1O	-10.9% (inactive)
NC(N)=[N+]1CCc2ccccc2C1	-5.39% (inactive)
C[N+](C)(C)CC=O	3.33% (inactive)
N=C(N)c1ccc(OCCCCCOc2ccc(C(=N)N)cc2)cc1 (tested in a mixture with another compound)	5.08% (inactive)
O=C(c1ccc2c(c1)OCCO2)N1CCCCC1	1.86% (inactive)
NC(N)=NC(N)=Nc1cccc(Cl)c1	-8.78% (inactive)
